target: Cholinesterase (Homo sapiens, UniProt P06276); experiment: Inhibitory potency was evaluated against isolated Butyrylcholinesterase
Sequence (P06276 whole entry): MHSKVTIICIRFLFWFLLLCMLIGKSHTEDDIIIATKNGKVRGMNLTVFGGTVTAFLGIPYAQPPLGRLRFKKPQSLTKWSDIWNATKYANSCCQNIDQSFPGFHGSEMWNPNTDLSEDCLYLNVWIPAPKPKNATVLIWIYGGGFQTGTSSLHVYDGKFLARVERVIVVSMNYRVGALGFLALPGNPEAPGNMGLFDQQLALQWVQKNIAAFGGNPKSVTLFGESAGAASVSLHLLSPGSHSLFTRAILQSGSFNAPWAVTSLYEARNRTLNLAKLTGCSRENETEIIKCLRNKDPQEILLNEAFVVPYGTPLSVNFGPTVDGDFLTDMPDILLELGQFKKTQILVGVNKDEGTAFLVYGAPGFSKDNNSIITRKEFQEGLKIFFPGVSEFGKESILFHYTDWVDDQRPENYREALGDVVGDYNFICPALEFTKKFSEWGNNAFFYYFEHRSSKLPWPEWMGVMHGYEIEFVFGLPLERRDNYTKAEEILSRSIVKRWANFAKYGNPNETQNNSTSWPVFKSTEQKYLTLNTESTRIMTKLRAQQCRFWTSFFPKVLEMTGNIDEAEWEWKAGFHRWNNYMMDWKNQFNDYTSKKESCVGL
experimental-readout: IC50 (µM)
Respond numerically; units are µM and should not be typed.

GET /value?item= `COc1cc2cc(-c3ccc(CN(C)Cc4ccccc4)cc3)c(=O)oc2cc1OC` &field=IC50 returns 48.9

====

target: Acetylcholinesterase (Homo sapiens, UniProt P22303); test: Inhibitory potency was evaluated against recombinant human AChE
Sequence (P22303 whole entry): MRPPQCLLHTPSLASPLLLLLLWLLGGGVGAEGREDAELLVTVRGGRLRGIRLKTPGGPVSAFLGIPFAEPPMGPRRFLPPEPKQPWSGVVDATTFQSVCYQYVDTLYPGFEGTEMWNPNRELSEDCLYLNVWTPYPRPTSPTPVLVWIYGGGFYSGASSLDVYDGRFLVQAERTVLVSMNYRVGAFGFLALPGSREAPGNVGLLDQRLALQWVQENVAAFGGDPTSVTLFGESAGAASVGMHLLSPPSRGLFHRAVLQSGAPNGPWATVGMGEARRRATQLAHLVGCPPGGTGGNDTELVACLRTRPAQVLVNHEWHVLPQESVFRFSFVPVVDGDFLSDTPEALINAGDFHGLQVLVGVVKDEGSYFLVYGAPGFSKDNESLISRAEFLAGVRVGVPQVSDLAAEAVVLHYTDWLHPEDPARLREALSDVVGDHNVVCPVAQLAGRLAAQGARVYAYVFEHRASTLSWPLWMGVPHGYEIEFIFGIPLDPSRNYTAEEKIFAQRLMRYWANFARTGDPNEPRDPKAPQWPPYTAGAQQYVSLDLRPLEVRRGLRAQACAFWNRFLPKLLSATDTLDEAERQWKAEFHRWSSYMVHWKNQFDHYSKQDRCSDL
experimental-readout: IC50 (nM)
Respond numerically; units are nM and should not be typed.

The molecule `COc1cc2cc(-c3ccc(CN(C)Cc4ccccc4)cc3)c(=O)oc2cc1OC` on Acetylcholinesterase (Homo sapiens, UniProt P22303): IC50 was 44.5
